# System: NLuc-UAA PTC
# TEST_DETAILS: NanoLuc nonsense reporter screen (all-in-one HTC plasmid), TAA/UAA PTC, HEK293 cells
# Assay type: cell-based, human
# CONDITION_PARAMETERS: Table 3, Gln TAA
MEASURE: Ranking

GlnTAAchr1.trna17: ACE-tRNA Gln, TAA suppressor, SEQ ID NO: 26 (nucleic acid, expressed or natural sequence) CGTCGGTTCCATGGTGTAATGGTGAGCACTCTGGACTTTAAATCCAGCGATCCGAGTTCGAGTCTCGGTGGAACCT: #3
GlnTAAchr6.trna63: ACE-tRNA Gln, TAA suppressor, SEQ ID NO: 29 (nucleic acid, expressed or natural sequence) CGTCGGTCCCATGGTGTAATGGTTAGCACTCTGGACTTTAAATCCAGCAATCCGAGTTCGAATCTCGGTGGGACCT: #5.2
